Tested on: Swiss mice, Sarcoma 180 sc, mean tumor weight T/C
measurement_notes: NCI In Vivo Anticancer Drug Screen. Data for tumor model Sarcoma 180 (subcutaneous) in Swiss mice
condition_parameters: endpoint: mean tumor weight; dose: 83.0 mg/kg/injection; schedule: Q01DX007 (ip); vehicle: carboxymethylcellulose (CMC); higher = larger tumour
measurement_name: T/C

Consider the worked cases shown below.
CC(=O)Nc1cc2c(cc1Cl)C(=O)c1cc(Cl)ccc1-2 | 53 % of control
O=C(O)c1c(-c2ccccc2)[nH]c2cc(Cl)ccc2c1=O | 51 % of control
CCCCCCCCCCCCOP(N)(=O)OCCCCCCCCCCCC | 71 % of control

Read the next record carefully.
Q: Give me measured T/C, please, for this compound: `C=CCNc1ccc(C)cc1`
Ans: 76 % of control

###

System: Swiss mice, Sarcoma 180 sc, mean tumor weight T/C
measurement_notes: NCI In Vivo Anticancer Drug Screen. Data for tumor model Sarcoma 180 (subcutaneous) in Swiss mice
condition_parameters: endpoint: mean tumor weight; dose: 0.5 mg/kg/injection; schedule: Q#A X014 (ip); vehicle: carboxymethylcellulose (CMC); higher = larger tumour
Description: The antitumor activity of compounds was measured in mice bearing transplantable tumors. Survival or tumor size were measured and the results are expressed as the measurement made in the treated group (T) divided by the measurement made in the vehicle treated control group (C). The tumor model used in this assay is Sarcoma 180 (subcutaneous) in Swiss mice
measurement_name: T/C

Consider the worked cases shown below.
N=[N+]=CC(=O)OCC(N)C(=O)O (stereo not given) | 35 % of control
CO[C@@]12[C@H](COC(N)=O)C3=C(C(=O)C(C)=C(N)C3=O)N1C[C@@H]1N[C@@H]12 | 57 % of control
C[C@]12CC[C@H](OC3OC(CO)C(O)C(O)C3O)C[C@H]1CC[C@@H]1[C@@H]2CC[C@]2(C)[C@@H](C3=CCOC3=O)CC[C@]12O (stereo not given in full) | 53 % of control
O=c1[nH]c(=O)c2n[nH]nc2[nH]1 | 102 % of control

Q: Give me measured T/C, please, for this molecule: `CN(Cc1cnc2nc(N)nc(N)c2n1)c1ccc(C(=O)N[C@@H](CCC(=O)O)C(=O)O)cc1`
Ans: 73 % of control

###

Record form. Attribute: T/C. Fill in for each entry.
Test system: Swiss mice, Sarcoma 180 sc, mean tumor weight T/C
measurement_notes: NCI In Vivo Anticancer Drug Screen. Data for tumor model Sarcoma 180 (subcutaneous) in Swiss mice
condition_parameters: endpoint: mean tumor weight; dose: 8.0 mg/kg/injection; schedule: Q01DX007 (ip); vehicle: carboxymethylcellulose (CMC); higher = larger tumour

Consider the worked cases shown below.
c1ccc(CNc2ncnc3[nH]ncc23)cc1 | 87 % of control
CCc1nc(N)nc(N)c1-c1ccc(Cl)c(Cl)c1.O.O.[Zn] | 39 % of control

Hello, I would appreciate it if you could give T/C for each entry below.
1. N#[N+]c1cnc([O-])[nH]c1=O
2. Cc1cc(N(CCCl)CCCl)ccc1N=Nc1ccccc1C(=O)O
3. Clc1ccc(C[P+](c2ccccc2)(c2ccccc2)c2ccccc2)cc1Cl
4. CCOC(=O)C(N)Cc1ccc(N(CCCl)CCCl)cc1 (centres undefined)
5. O=C(Nc1ccc(C2=NCCCN2)cc1)c1ccc(C(=O)Nc2ccc(C3=NCCCN3)cc2)cc1
6. O=NN(CCCl)C(=O)NCCCl
7. O=C(O)C(=O)c1ccc(-c2ccccc2)cc1
8. O=c1[nH]c(=O)n(C2CC(O)C(CO)O2)cc1F (centres undefined)

Ans:
95 % of control
50 % of control
46 % of control
83 % of control
104 % of control
35 % of control
106 % of control
97 % of control

Hello, I would appreciate it if you could give T/C for each entry below.
1. O=C(O)c1ccc(N=NSc2ncnc3nc[nH]c23)cc1O
2. O=P(N1CCCC1)(N1CC1)N1CC1

Ans:
1. 9 % of control
2. 23 % of control

Hello, I would appreciate it if you could give T/C for each entry below.
1. O=C(Nc1ccc(C2=NCCCN2)cc1)c1ccc(NC(=O)c2ccc(C3=NCCCN3)cc2)cc1
2. O=C1c2ccccc2C(=O)N1CCF

Ans:
["78 % of control", "72 % of control"]

###

Test system: Swiss mice, Sarcoma 180 sc, mean tumor weight T/C
measurement_notes: NCI In Vivo Anticancer Drug Screen. Data for tumor model Sarcoma 180 (subcutaneous) in Swiss mice
condition_parameters: endpoint: mean tumor weight; dose: 2.0 mg/kg/injection; schedule: Q01DX007 (ip); vehicle: carboxymethylcellulose (CMC); higher = larger tumour
Procedure: The antitumor activity of compounds was measured in mice bearing transplantable tumors. Survival or tumor size were measured and the results are expressed as the measurement made in the treated group (T) divided by the measurement made in the vehicle treated control group (C). The tumor model used in this assay is Sarcoma 180 (subcutaneous) in Swiss mice
measurement_name: T/C

Consider the worked cases shown below.
Nc1n[se]nc1C(=O)O | 77 % of control
COC(=O)[C@H]1[C@H]2C[C@@H]3c4[nH]c5cc(OC)ccc5c4CCN3C[C@H]2C[C@@H](OC(=O)c2cc(OC)c(OC)c(OC)c2)[C@@H]1OC | 35 % of control
O=C(Nc1ccc(C2=NCCCN2)cc1)c1ccc(C(=O)Nc2ccc(C3=NCCCN3)cc2)cc1 | 93 % of control

Hello, I would appreciate it if you could give T/C for each entry below.
1. CC1CN(C(=O)CCl)c2ccccc2N1C(=O)CCl (centres undefined)
2. O=C(O)CCc1c[nH]c2ccc(N(CCCl)CCCl)cc12
3. N#[N+]c1cnc([O-])[nH]c1=O

Ans:
121 % of control
47 % of control
102 % of control

Hello, I would appreciate it if you could give T/C for each entry below.
1. NC(=O)c1n[se]nc1N
2. CCC(=O)OCC1OC(n2cnc3c(=S)nc(N)[nH]c32)C(OC(=O)CC)C1OC(=O)CC (centres undefined)
3. O=c1[nH]c(=O)n(C2CC(O)C(CO)O2)cc1F (centres undefined)

Ans:
["99 % of control", "65 % of control", "97 % of control"]

###

Tested on: Swiss mice, Sarcoma 180 sc, mean tumor weight T/C
measurement_notes: NCI In Vivo Anticancer Drug Screen. Data for tumor model Sarcoma 180 (subcutaneous) in Swiss mice
condition_parameters: endpoint: mean tumor weight; dose: 62.5 mg/kg/injection; schedule: Q#A X014 (ip); vehicle: methylcellulose (MC); higher = larger tumour
measurement_name: T/C

O=C1CCCCC1C(=O)C(F)(F)F (centres undefined) | 34 % of control
CCCCCCC(=O)NC1=C(N2CC2)C(=O)C(NC(=O)CCCCCC)=C(N2CC2)C1=O | 31 % of control
O=C1N(Cl)C(=O)C(c2ccccc2)(c2ccc(F)cc2)N1Cl (centres undefined) | 75 % of control

Q: Give me measured T/C, please, for this compound: `CN(/N=N/c1nc[nH]c1C(N)=O)c1ccccc1`
Ans: 46 % of control

###

Tested on: Swiss mice, Sarcoma 180 sc, mean tumor weight T/C
measurement_notes: NCI In Vivo Anticancer Drug Screen. Data for tumor model Sarcoma 180 (subcutaneous) in Swiss mice
condition_parameters: endpoint: mean tumor weight; dose: 37.5 mg/kg/injection; schedule: Q#A X014 (ip); vehicle: methylcellulose (MC); higher = larger tumour
measurement_name: T/C

OCC1OC(n2cnc3c(=S)nc[nH]c32)C(O)C1O (configuration not stated) | 56 % of control
Nc1nc(SCc2ccccn2)c2ncn(C3OC(CO)C(O)C3O)c2n1 (configuration not stated) | 41 % of control
Nc1cc(SCc2ccccc2)nc(N)n1 | 70 % of control
CCCCSc1nc(N)nc2nc[nH]c12 | 78 % of control
S=c1nc[nH]c2nc[nH]c12 | 34 % of control

Hello, I would appreciate it if you could give T/C for each entry below.
1. CS(=O)(=O)OCCCCCOS(C)(=O)=O
2. c1cncc(CSc2ncnc3nc[nH]c23)c1

Ans:
["54 % of control", "47 % of control"]

###

Record form. Attribute: T/C. Fill in for each entry.
Tested on: Swiss mice, Sarcoma 180 sc, mean tumor weight T/C
measurement_notes: NCI In Vivo Anticancer Drug Screen. Data for tumor model Sarcoma 180 (subcutaneous) in Swiss mice
condition_parameters: endpoint: mean tumor weight; dose: 750.0 mg/kg/injection; schedule: Q01DX007 (ip); vehicle: saline; higher = larger tumour

Hello, I would appreciate it if you could give T/C for each entry below.
1. C=CN1CCCC1=O
2. Cc1cc(=O)[nH]c(N=Nc2c(O)[nH]c3ccccc23)n1
3. c1ccc2nc3ccccc3c-2cc1

Ans:
1. 20 % of control
2. 59 % of control
3. 85 % of control

Hello, I would appreciate it if you could give T/C for each entry below.
1. CC(=O)Nc1cc2c(cc1[N+](=O)[O-])-c1ccccc1C2O (stereo not given)
2. CC(=O)N(C)C

Ans:
1: 64 % of control; 2: 104 % of control
